Sourced from patent US4835180A

Assayed target: cyclooxygenase derived from rat basophilic leukemia (RBL-1) cells (Rattus norvegicus, UniProt Q63921)
Construct: Single cell suspensions of RBL-1 cells are homogenized to obtain the microsomal fraction containing lipoxygenase and cyclooxygenase; endogenous in cells; host or cells: RBL-1 (rat basophilic leukemia) cells, homogenate/microsomal fraction
Sequence (Q63921 27-602): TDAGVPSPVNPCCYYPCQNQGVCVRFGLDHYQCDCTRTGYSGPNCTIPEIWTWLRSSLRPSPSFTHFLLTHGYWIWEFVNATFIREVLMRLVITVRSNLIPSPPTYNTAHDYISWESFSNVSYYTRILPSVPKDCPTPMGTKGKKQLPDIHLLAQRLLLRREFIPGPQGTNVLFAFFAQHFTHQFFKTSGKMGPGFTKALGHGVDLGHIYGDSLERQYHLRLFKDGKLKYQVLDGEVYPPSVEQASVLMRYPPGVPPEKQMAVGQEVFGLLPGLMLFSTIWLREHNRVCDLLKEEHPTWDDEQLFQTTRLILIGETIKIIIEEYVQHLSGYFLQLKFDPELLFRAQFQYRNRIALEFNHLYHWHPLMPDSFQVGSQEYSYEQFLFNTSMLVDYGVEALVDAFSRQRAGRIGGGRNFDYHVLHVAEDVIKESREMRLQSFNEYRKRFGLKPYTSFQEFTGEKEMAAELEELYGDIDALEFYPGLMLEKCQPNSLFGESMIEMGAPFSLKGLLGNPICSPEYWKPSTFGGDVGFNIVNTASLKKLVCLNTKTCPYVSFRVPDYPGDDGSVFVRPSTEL
Test summary: % inhibition of formation of cyclooxygenase product prostaglandin D2 (C1) in RBL-1 microsomal homogenate
Type: biochemical
Parameters: dose or concentration left out as unconfirmed
Condition label: read-out: % Inhibition in vitro, C1 (prostaglandin D2)
Where a name gives a salt, the structure may show the parent alone.
Property label: inhibition (%)
Express your answer in %, writing the number without its unit.

Consider the worked cases shown below.
>>> quantitative_result("N#CCCCCCCNc1cc(Cl)c(O)c(Cl)c1 [Example 9c, monohydrochloride]")
9
>>> quantitative_result("Cl.N#CCCCCCCNc1ccc(O)cc1F [Example 11c, monohydrochloride]")
22
>>> quantitative_result("N#CCCCCCCCCNc1ccc(O)cc1.O=C(O)/C=C\\C(=O)O")
0

Reported inhibition for CC(=O)Oc1ccc(N(C)CCCCCCC#N)cc1 : what is it? 14

Reported inhibition for Cl.N#CCCCCCCNc1ccccc1O [Example 3c, monohydrochloride] : what is it? 0

Reported inhibition for Cc1cc(O)ccc1NCCCCCCC#N.Cl [Example 7c, monohydrochloride] : what is it? 0
